experiment: Hydrosolubility examination in pure water; type: physicochemical; details: per milliliter of purified water, 25° C.±2° C., visual, within 30 minutes
Structures can show the parent of a compound that is named as a salt.
Overview of recorded amount dissolved in each milliliter of water for various compounds
Endpoint label: amount dissolved in each milliliter of water (mg)

compound=COc1ccc2cc3[n+](c(C(Cl)Cl)c2c1OC)CCc1cc2c(cc1-3)OCO2.O=C([O-])/C=C\C(=O)O endpoint_unit=mg comparison_symbol== value=3.83
compound="COc1ccc2cc3[n+](c(C(Cl)Cl)c2c1OC)CCc1cc2c(cc1-3)OCO2.Cc1ccc(S(=O)(=O)[O-])cc1 [Compound 31, 8-dichloromethyl berberine tosylate]" endpoint_unit=mg comparison_symbol== value=5.0
compound=COc1ccc2cc3[n+](c(C(Cl)Cl)c2c1OC)CCc1cc2c(cc1-3)OCO2.O=S(=O)([O-])c1ccccc1 endpoint_unit=mg comparison_symbol== value=6.45
compound="COc1ccc2cc3[n+](cc2c1OC)CCc1cc2c(cc1-3)OCO2 [berberine hydrochloride]" endpoint_unit=mg comparison_symbol=< value=2
